Where do the numbers come from? From patent US20040162298A1.

# Tested on: HIV-1 single-round infectious reporter virus
# Experiment Notes: Anti-HIV single cycle infection assay (luciferase reporter virus, HeLa/CD4/CCR5 cells)
# Type: cell-based
# Condition: Human immunodeficiency virus 1, HeLa-CD4/CCR5, 72 h, read-out: Anti-HIV single cycle infection EC50
pEC50: −log10 of the molar value.
Quantity Kind: pEC50

chem_smiles=O=C(C(=O)N1CCN(C(=O)c2ccccc2)CC1)c1c[nH]c2ccccc12 value_measured=6.70
chem_smiles=COc1ccnc2[nH]cc(C(=O)C(=O)N3CCN(C(=O)c4ccccc4)C[C@H]3C)c12 value_measured=9.22
chem_smiles=COc1ccc(OC)c2c(C(=O)C(=O)N3CCN(C(=O)c4ccccc4)CC3)c[nH]c12 value_measured=10.00

----------
# Tested on: HIV-1 SF-162
# Experiment Notes: Activity against laboratory adapted HIV-1 strain SF-162
# Type: cell-based
# Condition: Human immunodeficiency virus 1, CCR5
pEC50: −log10 of the molar value.
Quantity Kind: pEC50

chem_smiles=COc1ccnc2[nH]cc(C(=O)C(=O)N3CCN(C(=O)c4ccccc4)C[C@H]3C)c12 value_measured=8.46

----------
# Target Of Assay: gp120JRFL/CD4 (Human immunodeficiency virus 1)
# Experiment Notes: gp120/CD4 binding assay (ELISA)
Quick reference: IC50 of the listed items.
Quantity Kind: IC50 (nM)

chem_smiles=O=C(C(=O)N1CCN(C(=O)c2ccccc2)CC1)c1c[nH]c2ccccc12 value_measured=1800
chem_smiles=COc1ccnc2[nH]cc(C(=O)C(=O)N3CCN(C(=O)c4ccccc4)C[C@H]3C)c12 value_measured=280
chem_smiles=COc1ccc(OC)c2c(C(=O)C(=O)N3CCN(C(=O)c4ccccc4)CC3)c[nH]c12 value_measured=24

----------
# System: laboratory strains of B subtype HIV-1
# Experiment Notes: Activity against panel of laboratory strains of B subtype HIV-1
# Format: cell-based
# Condition: Human immunodeficiency virus 1, read-out: EC50 values against 11 of the 13 laboratory strains
pEC50: −log10 of the molar value.
Quantity Kind: pEC50

chem_smiles=COc1ccnc2[nH]cc(C(=O)C(=O)N3CCN(C(=O)c4ccccc4)C[C@H]3C)c12 quantity_kind=pEC50 value_measured="7.12 to 9.07"
